Molecular target: human α2C adrenoceptor (Homo sapiens, UniProt P18825)
Construct: expressed in transfected cells
Sequence (P18825 whole entry): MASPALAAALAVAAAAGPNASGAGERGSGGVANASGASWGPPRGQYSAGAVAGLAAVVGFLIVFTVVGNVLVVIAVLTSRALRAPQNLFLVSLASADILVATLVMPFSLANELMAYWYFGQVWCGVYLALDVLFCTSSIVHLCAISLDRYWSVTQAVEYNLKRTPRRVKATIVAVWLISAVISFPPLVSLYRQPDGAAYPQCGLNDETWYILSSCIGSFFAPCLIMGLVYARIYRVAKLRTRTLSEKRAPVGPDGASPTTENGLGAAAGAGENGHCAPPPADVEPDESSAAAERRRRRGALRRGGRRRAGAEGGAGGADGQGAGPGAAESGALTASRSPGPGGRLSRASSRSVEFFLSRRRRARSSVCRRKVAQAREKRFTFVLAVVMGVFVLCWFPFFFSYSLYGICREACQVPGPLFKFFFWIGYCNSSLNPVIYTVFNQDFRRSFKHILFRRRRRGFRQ
Test: Radioligand binding, α2C adrenergic receptor
Settings: read-out: hα2C Ki; Table 9
pKi: −log10 of the molar value.

{"molecule": "COC[C@@H]1[C@@H](c2ccccc2)OCCN1c1nc(Nc2ccc(C)cc2)cc(N2CCCCC2)n1 [Example 49]", "pKi": 5.03}

----------
Target: human α1B adrenoceptor (Homo sapiens)
Construct: expressed in transfected cells
Sequence (P35368 whole entry): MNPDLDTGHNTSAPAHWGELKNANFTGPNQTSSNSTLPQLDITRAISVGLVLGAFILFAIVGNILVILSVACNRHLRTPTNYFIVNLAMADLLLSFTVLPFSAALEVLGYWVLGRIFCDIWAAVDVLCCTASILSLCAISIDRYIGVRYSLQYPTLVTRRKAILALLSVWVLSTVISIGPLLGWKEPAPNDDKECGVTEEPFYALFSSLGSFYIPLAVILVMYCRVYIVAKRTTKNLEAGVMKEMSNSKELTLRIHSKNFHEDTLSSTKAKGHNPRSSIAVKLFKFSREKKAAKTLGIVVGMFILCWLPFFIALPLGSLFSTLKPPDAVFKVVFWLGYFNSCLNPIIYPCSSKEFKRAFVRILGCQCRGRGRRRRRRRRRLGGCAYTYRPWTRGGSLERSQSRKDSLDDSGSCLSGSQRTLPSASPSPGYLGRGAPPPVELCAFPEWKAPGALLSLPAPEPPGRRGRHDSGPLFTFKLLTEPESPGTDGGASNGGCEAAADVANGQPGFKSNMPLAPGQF
Experiment: Radioligand binding, α1B adrenergic receptor
Details: Table 10; Ki hα1B divided by Ki hGAL3

{"smilesText": "CN(CCc1c[nH]c2ccccc12)c1nc(Nc2ccc(F)c(F)c2)cc(N2CCCCC2)n1", "selectivity ratio hα1B": 12}
{"smilesText": "O=C1C(=Nc2ccc(C(F)(F)F)cc2)c2ccccc2N1c1ccccc1", "selectivity ratio hα1B": ">100"}
{"smilesText": "O=C1C(=Nc2cccc(C(F)(F)F)c2)c2ccccc2N1c1ccccc1", "selectivity ratio hα1B": ">100"}
{"smilesText": "Cc1ccc(Nc2cc(N(C)C)nc(N(C)CCc3c[nH]c4ccccc34)n2)cc1", "selectivity ratio hα1B": 6}
{"smilesText": "O=C1C(=Nc2cccc(Cl)c2)c2ccccc2N1c1ccccc1", "selectivity ratio hα1B": ">100"}
{"smilesText": "COc1cccc(Nc2cc(N3CCCCC3)nc(N(C)CCc3c[nH]c4ccccc34)n2)c1", "selectivity ratio hα1B": 13}
{"smilesText": "O=C1C(=Nc2ccc(Br)cc2)c2ccccc2N1c1ccccc1", "selectivity ratio hα1B": ">100"}
{"smilesText": "O=C1C(=Nc2ccc(Cl)cc2)c2ccccc2N1c1ccccc1", "selectivity ratio hα1B": ">100"}
{"smilesText": "Cc1ccc(Nc2cc(N3CCCCC3)nc(N3CCN(c4ncccc4C(F)(F)F)CC3)n2)cc1", "selectivity ratio hα1B": ">100"}
{"smilesText": "COC[C@@H]1[C@@H](c2ccccc2)OCCN1c1nc(Nc2ccc(C)cc2)cc(N2CCCCC2)n1", "selectivity ratio hα1B": ">30"}
{"smilesText": "Cc1ccc(Nc2cc(N3CCCCC3)nc(N(C)CCc3ccccc3)n2)cc1", "selectivity ratio hα1B": ">30"}
{"smilesText": "Cc1ccc(Nc2cc(N3CCCCC3)nc(N(C)CCc3c[nH]c4ccccc34)n2)cc1", "selectivity ratio hα1B": 16}
{"smilesText": "CN(C)c1cc(Nc2ccc(Cl)c(Cl)c2)nc(Nc2ccccc2)n1", "selectivity ratio hα1B": ">100"}

----------
Molecular target: human GAL3 receptor (Homo sapiens)
Construct: expressed in transfected cells
Sequence (O60755 1-368): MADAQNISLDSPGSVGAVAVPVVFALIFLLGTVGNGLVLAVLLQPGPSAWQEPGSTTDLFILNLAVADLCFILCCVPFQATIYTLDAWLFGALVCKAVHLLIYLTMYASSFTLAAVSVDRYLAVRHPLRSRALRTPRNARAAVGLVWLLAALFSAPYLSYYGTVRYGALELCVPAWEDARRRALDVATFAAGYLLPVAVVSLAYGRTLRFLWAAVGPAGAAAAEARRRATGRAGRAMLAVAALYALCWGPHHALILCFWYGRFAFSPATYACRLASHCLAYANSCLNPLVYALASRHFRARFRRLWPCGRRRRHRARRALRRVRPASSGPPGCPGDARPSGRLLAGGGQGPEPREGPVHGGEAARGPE
Assay: Radioligand binding at cloned human GAL3 receptor
Conditions: Table 7; read-out: hGAL3 Ki
Please respond with 1 when measured Ki is strictly beneath 70 nM, and with -1 in all other cases.

{"compound": "CN(CCc1c[nH]c2ccccc12)c1nc(Nc2ccc(F)c(F)c2)cc(N2CCCCC2)n1 [Example 15]", "label": -1}
{"compound": "CN(C)c1cc(Nc2ccc(Cl)c(Cl)c2)nc(Nc2ccccc2)n1 [Example 60]", "label": -1}
{"compound": "O=C1C(=Nc2cccc(Cl)c2)c2ccccc2N1c1ccccc1 [Example 94]", "label": 1}
{"compound": "Cc1ccc(Nc2cc(N3CCCCC3)nc(N(C)CCc3ccccc3)n2)cc1 [Example 22]", "label": 1}
{"compound": "Cc1ccc(Nc2cc(N(C)C)nc(N(C)CCc3c[nH]c4ccccc34)n2)cc1 [Example 77]", "label": -1}
{"compound": "O=C1C(=Nc2ccc(Cl)cc2)c2ccccc2N1c1ccccc1 [Example 97]", "label": 1}
{"compound": "Cc1ccc(Nc2cc(N3CCCCC3)nc(N3CCN(c4ncccc4C(F)(F)F)CC3)n2)cc1 [Example 34]", "label": 1}
{"compound": "COc1cccc(Nc2cc(N3CCCCC3)nc(N(C)CCc3c[nH]c4ccccc34)n2)c1 [Example 17]", "label": -1}
{"compound": "O=C1C(=Nc2ccc(Br)cc2)c2ccccc2N1c1ccccc1 [Example 98]", "label": 1}
{"compound": "Cc1ccc(Nc2cc(N3CCCCC3)nc(N(C)CCc3c[nH]c4ccccc34)n2)cc1 [Example 11]", "label": -1}
{"compound": "O=C1C(=Nc2ccc(C(F)(F)F)cc2)c2ccccc2N1c1ccccc1 [Example 95]", "label": 1}

----------
Target: human dopamine D2 (Homo sapiens)
Construct: purchased BioSignal, Inc. (Montreal, Canada)
Sequence (P14416 whole entry): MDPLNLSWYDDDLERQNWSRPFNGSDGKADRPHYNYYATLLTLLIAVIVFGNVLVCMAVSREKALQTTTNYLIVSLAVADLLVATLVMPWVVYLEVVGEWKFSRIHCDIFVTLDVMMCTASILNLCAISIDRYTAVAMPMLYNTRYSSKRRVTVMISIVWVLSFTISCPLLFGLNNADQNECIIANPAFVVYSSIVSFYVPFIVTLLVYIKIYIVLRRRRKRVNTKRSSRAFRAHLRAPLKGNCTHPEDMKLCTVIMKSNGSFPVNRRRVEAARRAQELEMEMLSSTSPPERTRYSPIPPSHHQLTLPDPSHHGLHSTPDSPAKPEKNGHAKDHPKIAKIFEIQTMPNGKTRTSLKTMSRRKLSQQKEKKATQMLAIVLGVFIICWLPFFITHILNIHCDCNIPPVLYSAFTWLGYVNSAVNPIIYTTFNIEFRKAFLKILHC
Assay: Radioligand binding, dopamine D2 receptor
Conditions: read-out: hD2 Ki; Table 9
Experimental: Other receptors: Cell membranes expressing human dopamine D1, D2, D4 and rat D3 receptors were purchased through BioSignal, Inc. (Montreal, Canada). […] Binding data were analyzed using nonlinear regression and statistical techniques available in the GraphPAD Prism package (San Diego, CA). […]
pKi: −log10 of the molar value.
quantityName: pKi

{"smilesText": "COC[C@@H]1[C@@H](c2ccccc2)OCCN1c1nc(Nc2ccc(C)cc2)cc(N2CCCCC2)n1", "quantityName": "pKi", "reported": 5.23}

----------
Target: human GAL3 receptor (Homo sapiens, UniProt O60755)
Construct: expressed in transfected cells
Sequence (O60755 1-368): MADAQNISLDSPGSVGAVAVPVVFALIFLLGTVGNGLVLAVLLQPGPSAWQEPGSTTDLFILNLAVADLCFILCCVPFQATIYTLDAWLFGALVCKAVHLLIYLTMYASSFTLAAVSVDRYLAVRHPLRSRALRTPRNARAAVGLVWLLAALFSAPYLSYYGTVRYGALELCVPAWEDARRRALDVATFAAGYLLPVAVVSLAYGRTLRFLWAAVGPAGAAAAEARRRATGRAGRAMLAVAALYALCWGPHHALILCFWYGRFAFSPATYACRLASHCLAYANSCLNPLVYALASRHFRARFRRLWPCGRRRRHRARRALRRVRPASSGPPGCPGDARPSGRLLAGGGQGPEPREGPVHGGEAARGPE
Assay: Radioligand binding at cloned human GAL3 receptor
Details: pyrimidines, cloned human receptor; read-out: Ki GalR3

{"compound": "Cc1ccc(Nc2nc(Nc3cccc(C)c3)cc(N(C)C)n2)cc1", "unitOfMeasurement": "nM", "Ki": 980}
{"compound": "COc1cccc(Nc2cc(N(C)C)nc(N3CCN(c4ccccn4)CC3)n2)c1", "unitOfMeasurement": "nM", "Ki": 537}
{"compound": "Cc1ccc(Nc2cc(N3CCCCC3)nc(Nc3ccc(C)cc3)n2)cc1", "unitOfMeasurement": "nM", "Ki": 627}
{"compound": "Cc1ccc(Nc2cc(N(C)C)nc(N3CCN(Cc4ccco4)CC3)n2)cc1", "unitOfMeasurement": "nM", "Ki": 136}
{"compound": "CN(C)c1cc(Nc2ccc(Cl)c(Cl)c2)nc(Nc2ccccc2)n1", "unitOfMeasurement": "nM", "Ki": 86}
{"compound": "CCN(CCc1c[nH]c2ccccc12)c1nc(Nc2ccc(C)cc2)cc(N2CCCCC2)n1", "unitOfMeasurement": "nM", "Ki": 40}
{"compound": "COc1cc(Nc2cc(N(C)C)nc(N3CCN(c4ccccn4)CC3)n2)cc(C(F)(F)F)c1", "unitOfMeasurement": "nM", "Ki": 666}
{"compound": "CN(C)c1cc(Nc2cccc(OCc3ccccc3)c2)nc(N2CCN(c3ccccn3)CC2)n1", "unitOfMeasurement": "nM", "Ki": 13}
{"compound": "CN(C)c1cc(Nc2ccc(Cl)cc2)nc(N2CCN(c3ccccn3)CC2)n1", "unitOfMeasurement": "nM", "Ki": 248}
{"compound": "CCCCCc1ccc(Nc2cc(N(C)C)nc(N3CCN(c4ccccn4)CC3)n2)cc1", "unitOfMeasurement": "nM", "Ki": 58}
{"compound": "COc1cccc(Nc2cc(N(C)C)nc(N3CCN(Cc4ccncc4)CC3)n2)c1", "unitOfMeasurement": "nM", "Ki": 640}
{"compound": "Cc1ccc(Nc2cc(N3CCCCC3)nc(N(C)c3ccccc3)n2)cc1", "unitOfMeasurement": "nM", "Ki": 248}
{"compound": "CN(C)c1cc(Nc2ccc3c(c2)CCC3)nc(N2CCN(c3ccccn3)CC2)n1", "unitOfMeasurement": "nM", "Ki": 61}
{"compound": "CN(C)c1cc(Nc2ccc(C(F)(F)F)cc2)nc(N2CCN(Cc3ccccc3)CC2)n1", "unitOfMeasurement": "nM", "Ki": 37}
{"compound": "Cc1ccc(Nc2cc(N(C)C)nc(N(C)c3ccc(C)cc3)n2)cc1", "unitOfMeasurement": "nM", "Ki": 132}
{"compound": "CN(C)c1cc(Nc2cccc(OCc3ccccc3)c2)nc(N2CCN(Cc3ccccc3)CC2)n1", "unitOfMeasurement": "nM", "Ki": 32}
{"compound": "CN(C)c1cc(NC2CC3CCC2C3)nc(Nc2ccccc2)n1 (stereo not drawn)", "unitOfMeasurement": "nM", "Ki": 417}
{"compound": "Cc1ccc(Nc2cc(N3CCN(c4ncccc4C(F)(F)F)CC3)nc(N3CCCCC3)n2)cc1", "unitOfMeasurement": "nM", "Ki": 105}

FYI, the data here is from patent EP2140864A2.
